test system: Klebsiella aerogenes DSM 30053; experiment: growth (OD595) fold change vs plate DMSO controls (fold change (ratio)); higher = more growth; details: 20 µM; incubation time: 27 h, anaerobic, 37 °C
Counter-ions that a name gives are not always drawn.
Measured attribute: growth

Oc1ccc2c3c1O[C@H]1[C@@H](O)CC[C@@]4(O)[C@@H](C2)N(CC2CCC2)CC[C@]314 [Nalbuphine hydrochloride] : 0.923
CC(Oc1ccc(Oc2nc3ccc(Cl)cc3o2)cc1)C(=O)O (racemic) : 1.02
N#Cc1nn(-c2c(Cl)cc(C(F)(F)F)cc2Cl)c(N)c1[S+]([O-])C(F)(F)F (stereo not drawn) : 0.977
CCN[C@@H](C)Cc1cccc(C(F)(F)F)c1 [Dexfenfluramine hydrochloride] : 1.1
CCCC(Cn1cncn1)c1ccc(Cl)cc1Cl (stereo not drawn) : 1.02
Nc1ccncc1 [Dalfampridine] : 1.02
COCC(=O)N(c1c(C)cccc1C)[C@H](C)C(=O)OC : 1.03
CNC(=O)c1cc(Cl)cc(C)c1NC(=O)c1cc(Br)nn1-c1ncccc1Cl : 1.06
CC1C=CC=CCCC=CC=CC=CC=CC(OC2OC(C)C(O)C(N)C2O)CC2OC(O)(CC(O)C(O)CCC(O)CC(O)CC(O)CC(=O)OC(C)C(C)C1O)CC(O)C2C(=O)O (stereo not drawn) [Nystatine] : 1.01
CC(C)CC(N(C)C)C1(c2ccc(Cl)cc2)CCC1 (stereo not drawn) [Sibutramine hydrochloride] : 1.01
C[N+]1(C)CCOC(O)(c2ccc(-c3ccc(C4(O)C[N+](C)(C)CCO4)cc3)cc2)C1 (stereo not drawn) [Hemicholinium bromide] : 1.2
CC[C@@H](C(N)=O)N1CCCC1=O [Levetiracetam] : 1.08
O=C(NCNC(=O)NC1C(=O)NC(=O)N1CO)NC1C(=O)NC(=O)N1CO (stereo not drawn) [Imidurea] : 0.987
Cc1ccc(/N=C/N(C)/C=N/c2ccc(C)cc2C)c(C)c1 : 1.03
CN(C)C(=O)Oc1cc(OC(=O)N(C)C)cc(C(O)CNC(C)(C)C)c1 (stereo not drawn) [Bambuterol hydrochloride] : 1
C[N+]1(C)CCCCC1 : 1.02
C[C@]12CC[C@H](O)CC1=CC[C@@H]1[C@@H]2CC[C@]2(C)C(=O)CC[C@@H]12 [Prasterone] : 1.04
Cc1c(COC(=O)[C@@H]2[C@H](/C=C(\Cl)C(F)(F)F)C2(C)C)cccc1-c1ccccc1 (racemic) : 0.978
